system: Mus musculus; experiment: Toxicity in mouse assessed as hypervitaminosis dose compound treated ip daily monday through friday in first week and monday through thursday in second week measured after 1 day of last injection; format: organism-based; details: in vivo, 24 h
observed_property: Activity

Please review the entries below; each comes with its answer.
Entry CCOC(=O)/C=C(C)/C(F)=C\C=C(C)\C=C\c1c(C)cc(OC)c(C)c1C , system Mus musculus: what Activity was measured?
200 mg/kg/day

Entry CCOC(=O)\C=C(/C=C/C=C(C)/C=C/c1c(C)cc(OC)c(C)c1C)C(F)(F)F , system Mus musculus: what Activity was measured?
> 200 mg/kg/day

Entry CCOC(=O)/C=C(C)/C=C/C=C(C)/C=C/c1c(C)cc(OC)c(C)c1C [ETRETINATE] , system Mus musculus: what Activity was measured?
100 mg/kg/day

Entry COC(=O)/C=C(C)/C=C(F)/C=C(C)/C=C/c1c(C)cc(OC)c(C)c1C (mixture of isomers) , system Mus musculus: what Activity was measured?
> 200 mg/kg/day

Entry CCOC(=O)/C(F)=C(C)/C(F)=C/C=C(C)/C=C/c1c(C)cc(OC)c(C)c1C , system Mus musculus: what Activity was measured?
> 200 mg/kg/day

Entry COc1cc(C)c(/C=C/C(C)=C(F)/C=C/C(C)=C/C(=O)O)c(C)c1C , system Mus musculus: what Activity was measured?
50 mg/kg/day

Provide each entry's Activity from the list below.
1. COc1cc(C)c(/C=C/C(C)=C/C=C(F)/C(C)=C/C(=O)O)c(C)c1C
2. CCOC(=O)/C(F)=C(C)/C=C/C=C(C)/C=C/C1=C(C)CCCC1(C)C
3. CCOC(=O)/C(F)=C(C)/C=C/C=C(C)/C=C/c1c(C)cc(OC)c(C)c1C

1: 25 mg/kg/day; 2: 100 mg/kg/day; 3: 12.5 mg/kg/day

Provide each entry's Activity from the list below.
1. CCNC(=O)/C=C(C)/C(F)=C/C=C(C)/C=C/c1c(C)cc(OC)c(C)c1C
2. CCOC(=O)/C=C(C)/C(F)=C/C=C(C)/C=C/C1=C(C)CCCC1(C)C
3. CCOC(=O)/C=C(C)/C=C/C=C(C)/C=C/C1=C(C)CCCC1(C)C
4. COc1cc(C)c(/C=C/C(C)=C/C=C/C(C)=C/C(=O)O)c(C)c1C [ACITRETIN]
5. COC(=O)/C=C(C)/C=C/C(F)=C(C)/C=C/c1c(C)cc(OC)c(C)c1C
6. COC(=O)/C=C(C)/C=C/C(F)=C(C)/C=C/C1=C(C)CCCC1(C)C
7. COC(=O)/C=C(C)/C=C/C=C(\C=C\c1c(C)cc(OC)c(C)c1C)C(F)(F)F

1: 50 mg/kg/day; 2: 100 mg/kg/day; 3: 50 mg/kg/day; 4: 100 mg/kg/day; 5: 50 mg/kg/day; 6: 200 mg/kg/day; 7: > 200 mg/kg/day

Provide each entry's Activity from the list below.
1. CCOC(=O)/C(F)=C(C)/C=C/C(F)=C(C)/C=C/c1c(C)cc(OC)c(C)c1C
2. COC(=O)/C=C(C)/C=C/C(F)=C(C)\C=C\c1c(C)cc(OC)c(C)c1C
3. CCNC(=O)/C=C(C)/C=C/C(F)=C(C)/C=C/c1c(C)cc(OC)c(C)c1C

1. > 200 mg/kg/day
2. 200 mg/kg/day
3. 200 mg/kg/day

* * *

system: Mus musculus; test: Antipapilloma activity against Hart Swiss albino mouse assessed as decrease in chemically-induced papillomas at 5 mg/kg, ip for 5 days/week for 2 weeks; format: functional; set-up: scale not given: the % may be the effect or the level left; details: route intraperitoneal
observed_property: Activity (%)
One number for each entry, in %.

Please review the entries below; each comes with its answer.
Find the recorded Activity belonging to COc1cc(C)c(/C=C/C(C)=C/C=C(F)/C(C)=C/C(=O)O)c(C)c1C and report it.
63

Find the recorded Activity belonging to CCOC(=O)/C=C(C)/C(F)=C/C=C(C)/C=C/c1c(C)cc(OC)c(C)c1C and report it.
43

Find the recorded Activity belonging to COc1cc(C)c(/C=C/C(C)=C/C=C/C(C)=C/C(=O)O)c(C)c1C and report it.
18

Find the recorded Activity belonging to COC(=O)/C=C(C)/C=C/C(F)=C(C)/C=C/c1c(C)cc(OC)c(C)c1C and report it.
28

Provide each entry's Activity from the list below.
1. COc1cc(C)c(/C=C/C(C)=C(F)/C=C/C(C)=C/C(=O)O)c(C)c1C
2. CCNC(=O)/C=C(C)/C=C/C=C(C)/C=C/c1c(C)cc(OC)c(C)c1C [MOTRETINIDE]

1. 30
2. 11

* * *

test system: Mus musculus; assay: Antipapilloma activity against Hart Swiss albino mouse assessed as decrease in chemically-induced papillomas at 10 mg/kg, ip for 5 days/week for 2 weeks; type: functional; design: scale not given: the % may be the effect or the level left; conditions: route intraperitoneal
// label = t if Activity is not less than 40%, otherwise f

In plain terms: is recorded Activity at least 40% for CCNC(=O)/C=C(C)/C(F)=C/C=C(C)/C=C/c1c(C)cc(OC)c(C)c1C ?
t

In plain terms: is recorded Activity at least 40% for COc1cc(C)c(/C=C/C(C)=C/C=C(F)/C(C)=C/C(=O)O)c(C)c1C ?
t

In plain terms: is recorded Activity at least 40% for COc1cc(C)c(/C=C/C(C)=C/C=C/C(C)=C/C(=O)O)c(C)c1C ?
t

In plain terms: is recorded Activity at least 40% for CCOC(=O)/C=C(C)/C(F)=C/C=C(C)/C=C/C1=C(C)CCCC1(C)C ?
f

In plain terms: is recorded Activity at least 40% for CCOC(=O)/C(F)=C(C)/C=C/C=C(C)/C=C/c1c(C)cc(OC)c(C)c1C ?
f

* * *

system: Mus musculus; experiment: Toxicity in mouse assessed as hypervitaminosis dose compound treated ip daily monday through friday in first week and monday through thursday in second week measured after 1 day of last injection; type: organism-based; conditions: in vivo, 24 h
observed_property: Activity (mg/kg/day)
Numbers only, in mg/kg/day.

Find the recorded Activity belonging to CCNC(=O)/C=C(C)/C=C/C=C(C)/C=C/c1c(C)cc(OC)c(C)c1C [MOTRETINIDE] and report it.
50

// next item, Activity requested
Find the recorded Activity belonging to CCOC(=O)/C=C(C)/C(F)=C/C=C(C)/C=C/c1c(C)cc(OC)c(C)c1C and report it.
50

* * *

tested on: Mus musculus; test: Antipapilloma activity against Hart Swiss albino mouse assessed as decrease in chemically-induced papillomas at 10 mg/kg, ip for 5 days/week for 2 weeks; type: functional; parameters: scale not given: the % may be the effect or the level left; conditions: route intraperitoneal
observed_property: Activity
Answer format reminder: number followed by unit.

Please review the entries below; each comes with its answer.
Find the recorded Activity belonging to CCNC(=O)/C=C(C)/C=C/C=C(C)/C=C/c1c(C)cc(OC)c(C)c1C [MOTRETINIDE] and report it.
23%

Find the recorded Activity belonging to COC(=O)/C=C(C)/C=C/C(F)=C(C)/C=C/c1c(C)cc(OC)c(C)c1C and report it.
35%

Find the recorded Activity belonging to COc1cc(C)c(/C=C/C(C)=C(F)/C=C/C(C)=C/C(=O)O)c(C)c1C and report it.
54%

Find the recorded Activity belonging to CCOC(=O)/C=C(C)/C=C/C=C(C)/C=C/c1c(C)cc(OC)c(C)c1C [ETRETINATE] and report it.
9%

Further cases:
Find the recorded Activity belonging to CCOC(=O)/C=C(C)/C(F)=C/C=C(C)/C=C/c1c(C)cc(OC)c(C)c1C and report it.
76%

Taken from ChEMBL document CHEMBL3244097.
